Measured values drawn from patent US20210269525A1 for this set.

Target: T1, Cynomolgus CD3 epsilon Protein, His Tag (Acrobiosystems, Cat #CDE-05226) (cynomolgus (Macaca fascicularis), UniProt Q95LI5 22-117)
T1 construct: also called monkey CD3e; not shown: His tag
T1 sequence: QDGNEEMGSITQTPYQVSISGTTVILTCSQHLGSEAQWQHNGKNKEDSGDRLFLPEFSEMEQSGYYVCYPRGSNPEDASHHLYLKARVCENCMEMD
Experiment: SPR (Biacore), cynomolgus CD3e His tag
reported metric: koff (s⁻¹)
Write the answer as a number in s⁻¹, unit excluded.

// below: answered binders
- binder: "1B1-H2K1-IgG1-LALA (antibody, V domains shown, Humanized; human IgG1 with LALA mutations; also called H2K1 (humanized 1B1)) VH: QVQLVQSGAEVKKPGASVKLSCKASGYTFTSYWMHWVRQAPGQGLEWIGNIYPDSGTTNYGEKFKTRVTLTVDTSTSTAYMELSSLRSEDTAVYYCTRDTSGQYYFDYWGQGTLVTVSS VL: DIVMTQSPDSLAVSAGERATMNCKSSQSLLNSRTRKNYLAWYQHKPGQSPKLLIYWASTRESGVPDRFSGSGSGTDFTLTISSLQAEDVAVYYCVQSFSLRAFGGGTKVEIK"
  output unit: "s⁻¹"
  reported: 0.000999
- binder: "10A4-H1K1-IgG1-LALA (antibody, V domains shown, Humanized; human IgG1 with LALA mutations; also called H1K1 (humanized 10A4)) VH: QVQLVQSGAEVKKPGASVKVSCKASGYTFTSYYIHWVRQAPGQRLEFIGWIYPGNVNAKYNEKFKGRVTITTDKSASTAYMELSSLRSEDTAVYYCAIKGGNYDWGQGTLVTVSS VL: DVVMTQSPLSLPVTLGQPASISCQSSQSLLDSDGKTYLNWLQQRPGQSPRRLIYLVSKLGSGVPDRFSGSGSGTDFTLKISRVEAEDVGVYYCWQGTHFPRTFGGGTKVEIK"
  output unit: "s⁻¹"
  reported: 0.000597

Request the reported koff associated with 1B1-H2K2-IgG1-LALA (antibody, V domains shown, Humanized; human IgG1 with LALA mutations; also called H2K2 (humanized 1B1)) VH: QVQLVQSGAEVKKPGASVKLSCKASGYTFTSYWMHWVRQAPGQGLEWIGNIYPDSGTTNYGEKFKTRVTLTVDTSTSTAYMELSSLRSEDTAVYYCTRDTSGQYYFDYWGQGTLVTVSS VL: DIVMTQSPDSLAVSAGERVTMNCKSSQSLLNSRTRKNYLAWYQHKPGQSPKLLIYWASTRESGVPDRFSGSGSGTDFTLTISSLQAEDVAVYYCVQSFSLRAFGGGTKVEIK
0.000665
